Numbers sourced from PubChem BioAssay (NCI).

Test system: SF-295 CNS
Test: NCI-60 one-dose screen, 48 h
Details: 10 µM unless noted
About 83,000 compounds went through this panel and 20% of them were active in at least one assay; those are over-represented in the sample as a whole. Activity calls are given as the source filed them. How the source made its calls: active means growth percent below 10; inactive means the rest.
Labels: active, inactive

>  <compound>
O=C1Cc2ccccc2C(=O)N1

>  <label_value>
inactive

$$$$
>  <compound>
COc1cc(C2c3cc4c(cc3C(OC(=O)C[n+]3ccccc3)C3COC(=O)C23)OCO4)cc(OC)c1OC (stereo not given)

>  <label_value>
active

$$$$
>  <compound>
CC1CC(O)CC(C)(C)C1.CC1CC(O)CC(C)(C)C1.CC1CC(O)CC(C)(C)C1.CC1CC(O)CC(C)(C)C1.[Ti] (stereo not given)

>  <label_value>
inactive

$$$$
>  <compound>
C/C(=C\c1ccccc1)C(O)C(=O)c1nc2ccc([N+](=O)[O-])cc2[nH]c1=O (stereo not given)

>  <label_value>
inactive

$$$$
>  <compound>
O=C1C=CC(n2cc(F)c(=O)[nH]c2=O)O1 (stereo not given)

>  <label_value>
inactive

$$$$

----------
System: TK-10 renal
Assay: NCI-60 one-dose screen, 48 h (100 = growth as untreated, 0 = no growth, -100 = all killed)
Conditions: 10 µM unless noted
About 83,000 compounds went through this panel and 20% of them were active in at least one assay; those are over-represented in the sample as a whole.
Listing: growth of selected compounds

>  <compound>
CCOC(=O)c1ccncc1

>  <uom>
%

>  <growth>
99.4

$$$$
>  <compound>
O=P(O)(O)OC1C(OP(=O)(O)O)C(OP(=O)(O)O)C(OP(=O)(O)O)C(OP(=O)(O)O)C1OP(=O)(O)O.[Cu+2] (stereo not given)

>  <uom>
%

>  <growth>
118

$$$$
>  <compound>
Cc1cc(-c2ccc(N=Nc3c(C)nn(-c4ccc(S(=O)(=O)O)cc4)c3O)c(C)c2)ccc1N=Nc1ccc(O)c(C(=O)O)c1

>  <uom>
%

>  <growth>
141

$$$$
>  <compound>
Cc1ccc(S(=O)(=O)n2ccnc2)cc1

>  <uom>
%

>  <growth>
93

$$$$
>  <compound>
O=C1Cc2ccccc2C(=O)N1

>  <uom>
%

>  <growth>
91

$$$$

----------
System: NCI-H226 lung
Assay: NCI-60 one-dose screen, 48 h (100 = growth as untreated, 0 = no growth, -100 = all killed)
Conditions: 10 µM unless noted
Compounds without any hit were thinned out: in the full panel of roughly 83,000, 20% have a hit. The source made the active and inactive calls. The calls were made as follows: active = growth percent below 10; inactive = the rest.
readout_type: growth

>  <compound>
O=C1C=CC(=O)N1Cc1ccco1

>  <readout_type>
growth

>  <result>
97.1% (inactive)

$$$$
>  <compound>
COC(=O)c1nc(N)nc(C(=O)OC)c1C(=O)c1ccc(F)cc1

>  <readout_type>
growth

>  <result>
110% (inactive)

$$$$
>  <compound>
Clc1ccc2sc(-c3ccccc3)nc2c1

>  <readout_type>
growth

>  <result>
82.2% (inactive)

$$$$
>  <compound>
CCOc1ccc(/C=C\C(=O)O)cc1

>  <readout_type>
growth

>  <result>
114% (inactive)

$$$$
>  <compound>
Cc1ccc(S(=O)(=O)n2ccnc2)cc1

>  <readout_type>
growth

>  <result>
93.5% (inactive)

$$$$
>  <compound>
c1ccc2c[n+](Cc3ccc4ccccc4n3)ccc2c1

>  <readout_type>
growth

>  <result>
85.8% (inactive)

$$$$
>  <compound>
COCCCNC1=C(C#N)C(=O)NC(c2cccs2)S1 (centres undefined)

>  <readout_type>
growth

>  <result>
98.4% (inactive)

$$$$
>  <compound>
Nc1ccc2ccc(NS(=O)(=O)N3CCCCC3)cc2c1

>  <readout_type>
growth

>  <result>
15.2% (inactive)

$$$$
>  <compound>
O=C1c2cccnc2-c2ncccc21

>  <readout_type>
growth

>  <result>
90% [100 µM] (inactive)

$$$$
>  <compound>
CC(C)=NOC(C)C(=O)O (centres undefined)

>  <readout_type>
growth

>  <result>
104% (inactive)

$$$$
>  <compound>
CCOP(C)(=O)/C(Cc1ccc(OC)c(OC)c1)=N\O (centres undefined)

>  <readout_type>
growth

>  <result>
96% (inactive)

$$$$
>  <compound>
OCc1cccc(F)c1

>  <readout_type>
growth

>  <result>
104% (inactive)

$$$$
>  <compound>
CCc1ccc(OC(=O)CCl)cc1

>  <readout_type>
growth

>  <result>
97% (inactive)

$$$$
>  <compound>
Oc1ccc(O)c(-c2ccccc2)c1

>  <readout_type>
growth

>  <result>
54.9% (inactive)

$$$$
